TEST TARGET: UniProtKB Q99835
Sequence (Q99835 whole entry): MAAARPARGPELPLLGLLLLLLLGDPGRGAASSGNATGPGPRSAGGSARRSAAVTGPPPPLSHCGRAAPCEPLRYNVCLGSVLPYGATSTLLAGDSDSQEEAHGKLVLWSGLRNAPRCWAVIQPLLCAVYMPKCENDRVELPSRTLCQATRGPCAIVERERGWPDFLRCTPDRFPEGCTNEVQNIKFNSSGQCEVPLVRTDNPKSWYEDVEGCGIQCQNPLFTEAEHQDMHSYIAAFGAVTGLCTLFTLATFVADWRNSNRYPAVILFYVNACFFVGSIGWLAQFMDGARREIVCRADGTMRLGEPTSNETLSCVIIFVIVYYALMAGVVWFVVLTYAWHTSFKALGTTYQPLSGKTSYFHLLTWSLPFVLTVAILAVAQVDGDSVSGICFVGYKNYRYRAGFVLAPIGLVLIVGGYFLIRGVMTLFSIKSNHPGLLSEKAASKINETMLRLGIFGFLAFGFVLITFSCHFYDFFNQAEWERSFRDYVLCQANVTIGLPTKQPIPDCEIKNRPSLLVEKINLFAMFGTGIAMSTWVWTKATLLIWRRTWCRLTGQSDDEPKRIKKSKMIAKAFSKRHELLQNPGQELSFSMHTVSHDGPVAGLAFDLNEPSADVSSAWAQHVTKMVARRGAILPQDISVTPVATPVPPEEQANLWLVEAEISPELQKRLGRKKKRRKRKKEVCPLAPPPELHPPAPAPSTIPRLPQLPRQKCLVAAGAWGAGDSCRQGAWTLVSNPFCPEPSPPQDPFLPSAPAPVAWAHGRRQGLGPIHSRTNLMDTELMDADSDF
METHOD DESCRIPTION: Displacement of BODIPY-cyclopamine from human Smo expressed in HEK293 cells in presence of 20% normal human serum
Format: cell-based
log10 IC50: recorded values
In plain terms, each number is the log10 of measured IC50 in nM.

Below are worked cases with known answers.
[[record]]
smiles_data = "C[C@]12CN(C(=O)Nc3ccccc3-c3ccccc3)CCN1C(=O)N([C@H]1C[C@@H]1c1ccccc1)C2=O"
reported_metric = "log10 IC50"
recorded_value = 3.20

[[record]]
smiles_data = "O=C(Nc1cccnc1-c1ccccc1)N1CCN2C(=O)N([C@H]3C[C@@H]3c3ccccc3)C(=O)[C@@H]2C1"
reported_metric = "log10 IC50"
recorded_value = 1.08

[[record]]
smiles_data = "N#Cc1cccc(-c2ncccc2NC(=O)N2CCN3C(=O)N([C@H]4C[C@@H]4c4ccccc4)C(=O)[C@@H]3C2)c1"
reported_metric = "log10 IC50"
recorded_value = 1.34

[[record]]
smiles_data = "O=C(Nc1cccnc1-c1ccsc1)N1CCN2C(=O)N([C@H]3C[C@@H]3c3ccccc3)C(=O)[C@@H]2C1"
reported_metric = "log10 IC50"
recorded_value = 1.62

[[record]]
smiles_data = "O=C(Nc1cccc(Cl)c1Cl)N1CCN2C(=O)N([C@H]3C[C@@H]3c3ccccc3)C(=O)[C@@H]2C1"
reported_metric = "log10 IC50"
recorded_value = 2.84

[[record]]
smiles_data = "CS(=O)(=O)c1cc(Cl)c(NC(=O)N2CCN3C(=O)N([C@H]4C[C@@H]4c4ccccc4)C(=O)[C@@H]3C2)c(Cl)c1"
reported_metric = "log10 IC50"
recorded_value = 1.83

[[record]]
smiles_data = "O=C(Nc1c(Cl)cc(F)cc1Cl)N1CCN2C(=O)N([C@H]3C[C@@H]3c3ccccc3)C(=O)[C@@H]2C1"
reported_metric = "log10 IC50"
recorded_value = 2.72


Here is the next item to consider.
## Task Lab note: need log10 IC50 with UniProtKB Q99835 for entry O=C(Nc1cccnc1-c1cccc(Cl)c1)N1CCN2C(=O)N([C@H]3C[C@@H]3c3ccccc3)C(=O)[C@@H]2C1 , please look it up.
## Result 1.18
